Biological target: KRAS G12C::SOS1 (Homo sapiens)
Construct: purchased CISBIO 64KRASG12PEH
Sequence (Q07889 whole entry, stated change not applied): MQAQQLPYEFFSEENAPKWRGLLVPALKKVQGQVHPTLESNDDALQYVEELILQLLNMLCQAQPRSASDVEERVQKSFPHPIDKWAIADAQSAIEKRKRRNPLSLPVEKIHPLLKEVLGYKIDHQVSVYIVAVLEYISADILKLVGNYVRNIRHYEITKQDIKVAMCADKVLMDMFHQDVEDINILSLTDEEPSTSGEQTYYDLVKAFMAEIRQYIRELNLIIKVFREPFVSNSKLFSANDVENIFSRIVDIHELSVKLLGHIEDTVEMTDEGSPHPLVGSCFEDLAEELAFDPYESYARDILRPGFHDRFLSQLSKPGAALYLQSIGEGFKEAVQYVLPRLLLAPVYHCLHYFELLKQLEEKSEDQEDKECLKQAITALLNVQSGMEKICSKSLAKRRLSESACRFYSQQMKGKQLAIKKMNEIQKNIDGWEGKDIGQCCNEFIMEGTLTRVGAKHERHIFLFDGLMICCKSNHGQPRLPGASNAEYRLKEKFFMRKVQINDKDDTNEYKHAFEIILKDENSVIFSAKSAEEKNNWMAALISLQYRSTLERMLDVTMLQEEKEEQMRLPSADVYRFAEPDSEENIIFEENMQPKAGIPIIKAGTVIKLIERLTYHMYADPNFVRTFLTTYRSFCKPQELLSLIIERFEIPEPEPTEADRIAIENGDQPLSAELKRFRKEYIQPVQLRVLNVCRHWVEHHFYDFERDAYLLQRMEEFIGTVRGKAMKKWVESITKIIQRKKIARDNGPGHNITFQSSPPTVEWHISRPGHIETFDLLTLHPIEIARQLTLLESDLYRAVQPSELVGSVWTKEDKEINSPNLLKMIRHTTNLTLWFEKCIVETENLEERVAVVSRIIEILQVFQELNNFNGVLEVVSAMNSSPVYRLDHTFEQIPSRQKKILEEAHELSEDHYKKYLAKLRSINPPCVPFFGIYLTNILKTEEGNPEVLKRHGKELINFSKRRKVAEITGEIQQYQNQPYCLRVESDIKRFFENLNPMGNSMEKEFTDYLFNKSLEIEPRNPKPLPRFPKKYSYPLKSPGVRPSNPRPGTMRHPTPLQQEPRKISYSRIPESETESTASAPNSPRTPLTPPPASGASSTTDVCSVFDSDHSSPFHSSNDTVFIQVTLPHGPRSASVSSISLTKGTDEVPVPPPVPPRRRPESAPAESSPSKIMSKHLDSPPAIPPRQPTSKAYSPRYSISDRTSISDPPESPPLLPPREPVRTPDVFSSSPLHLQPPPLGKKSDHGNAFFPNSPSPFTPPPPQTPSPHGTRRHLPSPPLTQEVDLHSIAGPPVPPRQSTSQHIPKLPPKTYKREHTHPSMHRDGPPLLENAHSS
Experiment: KRAS G12C::SOS1 protein-protein interaction (PPI) inhibition assay (HTRF)
Format: binding
Conditions: 8 concentrations from 3 µM, three replicates; read-out: KRAS G12C::SOS1 PPI
assay readout: IC50

Use these answered entries as a reference point.
molecule=C[C@@H](NC(=O)c1ccc(=O)n(-c2cncc(-c3cnnn3C3CC3)c2)n1)c1cccc(C(F)(F)CO)c1F result_value="< 50 nM"
molecule=C[C@@H](NC(=O)c1cc(Cl)c(=O)n(-c2cncc(-c3c(Cl)nnn3C)c2)n1)c1cccc(C(F)F)c1F result_value="> 150 nM"
molecule="C[C@H](O)c1cc(C(=O)N[C@H](C)c2cccc(C(F)(F)F)c2F)nn(-c2cncc(-c3cnnn3C)c2)c1=O (single isomer, unassigned)" result_value="50 to 150 nM"
molecule=C[C@@H](NC(=O)c1ccc(=O)n(-c2cnnc(-c3ccnn3C)c2)n1)c1cccc(C(F)(F)CO)c1F result_value="> 150 nM"
molecule=C[C@@H](NC(=O)c1cc(N[C@H](C)c2cccc(C(F)(F)F)c2F)c(=O)n(-c2cncc(-c3cnnn3C)c2)n1)c1cccc(C(F)(F)F)c1F result_value="> 150 nM"

# input Entry CCn1nncc1-c1cncc(-n2nc(C(=O)N[C@H](C)c3cccc(C(F)(F)CO)c3F)cc(C)c2=O)c1 has what IC50?
# output < 50 nM

# input Entry C[C@@H](NC(=O)c1ccc(=O)n(-c2cncc(-c3cnnn3C)c2)n1)c1cccc(C(F)(F)CO)c1Cl has what IC50?
# output 50 to 150 nM
